Test system: IGROV1 ovarian
experimental.details: NCI tumour cell line growth inhibition, 48 h; in the data active = GI50 below about 0.43 µM; inactive = the rest
Write down one outcome, taken from yes (1) = active, no (0) = inactive

[
  {
    "compound": "C[C@]12CCC3[C@@H](C[C@@H]4SC(Nc5ccccc5)=N[C@@]45CC(=O)CC[C@]35C)[C@@H]1CCC2=O (stereo partly specified)",
    "study.target": "IGROV1 ovarian",
    "discrete.label": "no (0)"
  },
  {
    "compound": "O=C(/C=C/c1cccnc1)NCCCCC1CCN(C(=O)c2ccccc2)CC1",
    "study.target": "IGROV1 ovarian",
    "discrete.label": "no (0)"
  },
  {
    "compound": "N#Cc1c(C(=O)c2ccccc2)cnn1-c1ccccc1",
    "study.target": "IGROV1 ovarian",
    "discrete.label": "no (0)"
  },
  {
    "compound": "CC(CN(CP(=O)([O-])[O-])CP(=O)([O-])[O-])N(CP(=O)([O-])[O-])CP(=O)([O-])[O-].N.N.[Pt+2] (stereo unspecified)",
    "study.target": "IGROV1 ovarian",
    "discrete.label": "no (0)"
  }
]

[ask] Hi team, can someone confirm the assay call for CC[C@]1(O)CC2CN(CCc3c([nH]c4ccccc34)[C@@](C(=O)OC)(c3cc4c(cc3OC)N(C)[C@H]3[C@@](O)(C(=O)OC)[C@H](OC(C)=O)[C@]5(CC)C=CCN6CC[C@]43[C@@H]65)C2)C1 (stereo partly specified) ?
[reply] yes (1)

[ask] Lab log entry: Cc1c(C#N)cccc1-c1cc(-c2cn(Cc3cccc(C(C)(C)O)n3)nn2)nc(N)n1 — outcome as called in the assay?
[reply] no (0)

[ask] Tell me the assay call for C(=N\Nc1ccccn1)/c1ccccn1 please.
[reply] yes (1)

[ask] Could you please tell me the result logged for Nc1ccccc1C#C/C=C\C#Cc1ccccc1C(F)(F)F in this assay?
[reply] no (0)

[ask] Give the logged outcome of this assay for the following compound: OCc1cn(Cc2cccc(Cl)c2)c2ccccc12
[reply] yes (1)

[ask] Returns: the outcome recorded for Oc1ccc(Cc2ccc(O)c3ncccc23)c2cccnc12 in this assay.
[reply] yes (1)

[ask] Identify the outcome logged in this assay for the compound shown: NC(=O)c1cnc(N[C@@H]2CCCC[C@@H]2N)nc1Nc1cccc(-n2nccn2)c1
[reply] no (0)

[ask] Hi, sorry to bother you, what did the test record for CCCCn1c2cc(OCc3cn(-c4ccc(Cl)cc4)nn3)ccc2c2ccnc(C)c21 ?
[reply] no (0)
